Measured log10(Ki), listed per entry.
# test protocol: Inhibition of Sporosarcina pasteurii CCM 2056 urease assessed as reduction in ammonia production by measuring steady state enzyme-inhibitor complex using urea as substrate measured for 120 mins by phenol-hypochlorite method
# experimental conditions: read-out: Ki
Where a name gives a salt, the structure may show the parent alone.
Base-10 log of Ki, unit nM.

>>> reported_result("O=C1C=CCC1")
2.37
>>> reported_result("CCOC(=O)/C=C/C(=O)c1ccccc1")
3.08
>>> reported_result("CC#CC(=O)OCC")
5.07

Lookup: Form field: reported log10(Ki) of COC(=O)C#CC(=O)OC
Found: 1.09

Lookup: Form field: reported log10(Ki) of COC(=O)/C=C/C(=O)OC [DIMETHYL FUMARATE]
Found: 4.34

Lookup: Form field: reported log10(Ki) of O=C(O)C#CC(=O)O
Found: 1.74

----------
# System: Sporosarcina pasteurii
# test protocol: Reversible inhibition of Sporosarcina pasteurii CCM 2056 urease assessed as reduction in ammonia production by measuring recovery of enzyme activity at 10 times IC50 preincubated for 60 mins followed by 100-fold dilution in to PBS containing urea as substrate by Berthelot colorimetric assay relative to control
# Design: scale not given: the % may be the effect or the level left
Label yes when Activity < 40%; otherwise no.

Lookup: Consider CC#CC(=O)OCC . Does its Activity lie strictly below 40%?
Found: no

Lookup: Consider O=C(O)/C=C/C1=CC(=O)CCC1 . Does its Activity lie strictly below 40%?
Found: yes

Lookup: Consider O=C1C=CCC1 . Does its Activity lie strictly below 40%?
Found: yes

Lookup: Consider COC(=O)C#CC(=O)OC . Does its Activity lie strictly below 40%?
Found: yes

----------
# test protocol: Inhibition of Sporosarcina pasteurii CCM 2056 urease assessed as reduction in ammonia production by measuring initial state enzyme-inhibitor complex using urea as substrate measured for 120 mins by phenol-hypochlorite method
# experimental conditions: read-out: Ki
measured quantity: Ki (µM)
The reply should contain only the number, in µM.

Lookup: Form field: reported Ki of CCOC(=O)/C=C/C(=O)OC(C)(C)C
Found: 425

Lookup: Form field: reported Ki of O=C(O)/C=C/c1ccccc1
Found: 595

Lookup: Form field: reported Ki of Cc1ccc(C(=O)/C=C/C(=O)O)cc1
Found: 77.1

Lookup: Form field: reported Ki of CCOC(=O)/C=C/C(=O)C(=O)OCC
Found: 32.8

----------
Measured Ki, listed per entry.
# test protocol: Inhibition of Sporosarcina pasteurii CCM 2056 urease assessed as reduction in ammonia production by measuring initial state enzyme-inhibitor complex using urea as substrate measured for 120 mins by phenol-hypochlorite method
# experimental conditions: read-out: Ki
The reply should contain only the number, in µM.

>>> reported_result("COC(=O)C#CC(=O)OC")
0.973

Lookup: Form field: reported Ki of CC(C)OC(=O)/C=C/C(=O)OC(C)C
Found: 678

Lookup: Form field: reported Ki of O=C(O)/C=C/C(=O)O [FUMARIC ACID]
Found: 432

Lookup: Form field: reported Ki of CC#CC(=O)OCC
Found: 1270

----------
# test protocol: Inhibition of Sporosarcina pasteurii CCM 2056 urease assessed as reduction in ammonia production using urea as substrate measured for 120 mins by phenol-hypochlorite method
# experimental conditions: read-out: Ki
Label yes (1) when Ki < 20 µM; otherwise no (0).

>>> assigned_class("CCC(C)OC(=O)/C=C/C(=O)OC(C)CC (centres undefined)")
"no (0)"
>>> assigned_class("CC#CC(=O)O")
"no (0)"
>>> assigned_class("O=C(O)/C=C(\\CC(=O)O)C(=O)O")
"yes (1)"

Lookup: Consider O=C(O)/C=C/c1ccccc1 . Does its Ki lie strictly below 20 µM?
Found: no (0)

Lookup: Consider CCOC(=O)/C=C/C(=O)c1ccccc1 . Does its Ki lie strictly below 20 µM?
Found: yes (1)

----------
# test protocol: Inhibition of Sporosarcina pasteurii CCM 2056 urease assessed as reduction in ammonia production by measuring initial state enzyme-inhibitor complex using urea as substrate measured for 120 mins by phenol-hypochlorite method
# experimental conditions: read-out: Ki
Structures can show the parent of a compound that is named as a salt.
Category | rule: reported Ki within range, see class 0 = under 50 µM, class 1 = from 50 µM up to 800 µM, class 2 = 800 µM and over

Look over these answered cases.
>>> assigned_class("C=C=CC(=O)OCC")
"class 1"
>>> assigned_class("CCOC(=O)/C=C/C(=O)c1ccccc1")
"class 0"

Lookup: Class label required: COC(=O)/C=C/C1=CC(=O)CCC1
Found: class 0

Lookup: Class label required: CCC(C)OC(=O)/C=C/C(=O)OC(C)CC (centres undefined)
Found: class 2

Lookup: Class label required: O=C1C=CCC1
Found: class 0

Lookup: Class label required: COC(=O)/C=C/C(=O)OC [DIMETHYL FUMARATE]
Found: class 1

Lookup: Class label required: CCCCOC(=O)/C=C/C(=O)OCCCC
Found: class 2

Lookup: Class label required: Cc1ccc(/C=C/C(=O)O)cc1
Found: class 1

----------
# test protocol: Inhibition of Sporosarcina pasteurii CCM 2056 urease assessed as reduction in ammonia production using urea as substrate measured for 120 mins by phenol-hypochlorite method
# experimental conditions: read-out: Ki
Structures can show the parent of a compound that is named as a salt.
measured quantity: pKi
// field semantics: pKi = negative decimal log of concentration (mol/L)

// below: answered compounds
>>> reported_result("O=C1C=CCCC1")
6.12
>>> reported_result("O=C(O)/C=C/C(=O)O [FUMARIC ACID]")
4.44
>>> reported_result("COC(=O)/C=C/C(=O)OC [DIMETHYL FUMARATE]")
4.67

Lookup: Form field: reported pKi of COC(=O)C#CC(=O)OC
Found: 8.01

# credit: ChEMBL document CHEMBL3997837
